The entries below come with measured inhibition values attached.
- Target or test system: Major prion protein (Homo sapiens)
- Assay procedure: reduces human prion protein on the cell surface, primary screen, cell-based, TR-FRET (AID 720596); note: 0% = median of the test wells and 100% = reference compound wells
- Cond: cell surface PrPC, TR-FRET read-out; at 13.8 µM; hits give high values
Hit rate of the full screen: of about 370,000 compounds, about 1,600 (0.43%) were called active. This excerpt belongs to a sample that is enriched for actives.
Quantity kind: inhibition (%)

compound=C=CCNC(=O)CSc1nc2scc(-c3ccco3)c2c(=O)n1CC=C quantity_kind=inhibition readout_units=% numeric_result=25.2
compound="COc1cccc(C(=O)N2CCCC(CCC(=O)NCc3ccc(F)c(F)c3)C2)c1 (stereo unspecified)" quantity_kind=inhibition readout_units=% numeric_result=1.57
compound=O=C(O)C#Cc1cccc2ccccc12 quantity_kind=inhibition readout_units=% numeric_result=17.9
compound="CCOC(=O)C1=CCC(c2ccc(F)cc2)N(S(=O)(=O)c2ccc(C)cc2)C1 (stereo unspecified)" quantity_kind=inhibition readout_units=% numeric_result=0.96
compound=NC(=O)C1CCN(C(=O)c2ccc3c(=O)n(Cc4cccc(Br)c4)c(=S)[nH]c3c2)CC1 quantity_kind=inhibition readout_units=% numeric_result=9.5
compound=NC(=O)C1CCN(Cc2nc3c(Br)cc(Br)cc3c(=O)[nH]2)CC1 quantity_kind=inhibition readout_units=% numeric_result=28.2
compound=N#Cc1c(-c2ccc(F)cc2)cc(C2CC2)nc1SCC(=O)c1cccs1 quantity_kind=inhibition readout_units=% numeric_result=8.6
compound="CCC(C)N(C(=O)COC(=O)c1nc(Cl)ccc1Cl)C1CCS(=O)(=O)C1 (stereo unspecified)" quantity_kind=inhibition readout_units=% numeric_result=5.66
compound=Cc1ccnc(NC(=O)C2CCN(S(=O)(=O)c3c(C)c(C)cc(C)c3C)CC2)c1 quantity_kind=inhibition readout_units=% numeric_result=28.1
compound=Cc1nc(NC(=O)CCC(=O)O)sc1C(=O)N(C)C quantity_kind=inhibition readout_units=% numeric_result=0.26
compound=Cc1ccc(CSc2ccc(S(=O)(=O)N3CCCCC3)cn2)cc1 quantity_kind=inhibition readout_units=% numeric_result=33.8
compound="CCOc1ccc(NC(=O)C2CC(=O)N=C(N)S2)cc1 (stereo unspecified)" quantity_kind=inhibition readout_units=% numeric_result=3.27
compound=O=C(Nc1ccccn1)C1CCN(S(=O)(=O)c2ccc3c(c2)OCCO3)CC1 quantity_kind=inhibition readout_units=% numeric_result=-7.97
compound=COC(=O)c1ccc(CSc2ccc(S(=O)(=O)N3CCCCC3)cn2)cc1 quantity_kind=inhibition readout_units=% numeric_result=0.66
compound=COc1ccc2c(CC(=O)OCC(=O)Nc3ccccc3[N+](=O)[O-])coc2c1 quantity_kind=inhibition readout_units=% numeric_result=-12.7
compound=CCOC(=O)N1CCN(C(=O)c2ccccc2N(Cc2ccccc2)S(=O)(=O)c2ccc(OC)cc2)CC1 quantity_kind=inhibition readout_units=% numeric_result=9.59
compound=C=CCn1c(O)c(/C=N/N2CCOCC2)c(=O)[nH]c1=S quantity_kind=inhibition readout_units=% numeric_result=-4.21
compound="CC1(C(=O)NS(=O)(=O)Cc2cccc(Cl)c2)CCN1C(=O)Cc1ccc(Cl)cc1Cl (stereo unspecified)" quantity_kind=inhibition readout_units=% numeric_result=1.42
compound=COc1ccc(C[C@H]2CN3C(=NC[C@H]3C)N2CCNC(=O)CCC2CCCCC2)cc1 quantity_kind=inhibition readout_units=% numeric_result=-0.91
compound=N#Cc1c(-c2cccs2)nc(SCC(=O)c2ccc(Br)cc2)[nH]c1=O quantity_kind=inhibition readout_units=% numeric_result=49.9
compound=COc1ccc(-c2cc(C(F)(F)F)nc(SCCC(=O)NCc3ccco3)n2)cc1 quantity_kind=inhibition readout_units=% numeric_result=-0.14
compound="COc1ccc(CC(=O)NC(C)c2ccc(Cl)c(Cl)c2)cc1S(=O)(=O)N1CCOCC1 (stereo unspecified)" quantity_kind=inhibition readout_units=% numeric_result=4.45
compound=O=C(Cc1ccccc1)Nc1cccc(NC(=O)c2ccccc2)c1 quantity_kind=inhibition readout_units=% numeric_result=30.2
compound=COC(=O)Cc1nc2c(N)nc(N)nc2[nH]c1=O quantity_kind=inhibition readout_units=% numeric_result=4.68
compound=COc1cc(C(=O)N2Cc3ccc(Br)cc3-n3nncc3C2)cc(OC)c1OC quantity_kind=inhibition readout_units=% numeric_result=-0.36
compound=Cc1cccc(CC(=O)N2CCN=C2SCc2ccc([N+](=O)[O-])cc2)c1 quantity_kind=inhibition readout_units=% numeric_result=-5.21
compound="O=C(Nc1ccccc1Cl)/C(Cl)=C(\\Cl)S(=O)c1ccccc1 (stereo unspecified)" quantity_kind=inhibition readout_units=% numeric_result=93.7
compound=O=C(Nc1ccccc1)N1CCN(Cc2nc3ccccc3c(=O)[nH]2)CC1 quantity_kind=inhibition readout_units=% numeric_result=-8.21
compound=OCCCNc1nccc(-c2cc(Nc3cccc(Cl)c3)ncn2)n1 quantity_kind=inhibition readout_units=% numeric_result=29.2
compound="Cc1cccc(C(=O)C(O)(c2ccccc2)C2CCCCC2=O)c1 (stereo unspecified)" quantity_kind=inhibition readout_units=% numeric_result=-5.23
compound=O=C(Nc1ccc(N2CCN(C(=O)c3ccccc3)CC2)c(Cl)c1)c1cccnc1 quantity_kind=inhibition readout_units=% numeric_result=26.1

----------
- Target or test system: Major prion protein (Homo sapiens) (UniProt P04156)
- Assay procedure: reduces human prion protein on the cell surface, primary screen, cell-based, TR-FRET (AID 720596); note: 0% = median of the test wells and 100% = reference compound wells
- Cond: cell surface PrPC, TR-FRET read-out; at 13.8 µM; hits give high values
The campaign covered roughly 370,000 compounds. About 1,600 (0.43%) were called active. For the sample, actives were picked, then their nearest neighbours and some compounds at random.
inhibition listing for selected compounds.
Quantity kind: inhibition (%)

compound="CCOC(=O)C1(Cc2ccc(Cl)cc2)CCN(C(C)CCn2cccn2)CC1 (stereo not drawn)" target_or_test_system="Major prion protein (Homo sapiens) (UniProt P04156)" numeric_result=-7.01
compound=Cc1cc(C(C)(C)C)cc(S(=O)(=O)Nc2ccc(C(=O)O)cc2)c1C target_or_test_system="Major prion protein (Homo sapiens) (UniProt P04156)" numeric_result=0.8
compound=CCOc1ccc(Oc2c(Cl)cnn(-c3ccc(C)cc3)c2=O)cc1 target_or_test_system="Major prion protein (Homo sapiens) (UniProt P04156)" numeric_result=-10.9
compound=O=C(COC(=O)c1ccccc1SCC(=O)NC1CCCCC1)NC1CCCCC1 target_or_test_system="Major prion protein (Homo sapiens) (UniProt P04156)" numeric_result=52.2
compound=COc1ccc(CN2CCC(c3nc4ccc(Cl)cc4[nH]3)CC2)cc1 target_or_test_system="Major prion protein (Homo sapiens) (UniProt P04156)" numeric_result=-13.1
compound="CNC(=O)C1CN(C(=O)c2cccc(S(=O)(=O)N3CCc4ccccc43)c2)c2ccccc2O1 (stereo not drawn)" target_or_test_system="Major prion protein (Homo sapiens) (UniProt P04156)" numeric_result=4.01
compound=Cc1ccc(Oc2cnn(-c3ccccc3)c(=O)c2Br)cc1 target_or_test_system="Major prion protein (Homo sapiens) (UniProt P04156)" numeric_result=32.8
compound="CCCCC(=O)NC(c1ccc(OC)c(OC)c1)c1ccc2cccnc2c1O (stereo not drawn)" target_or_test_system="Major prion protein (Homo sapiens) (UniProt P04156)" numeric_result=28.6
compound=Cc1ccc(OC(=O)c2c(C)nn(-c3ccccc3)c2C)cc1 target_or_test_system="Major prion protein (Homo sapiens) (UniProt P04156)" numeric_result=4.97
compound=Cc1ccc(S(=O)(=O)N2CCOCC2)cc1NC(=O)c1ccncc1 target_or_test_system="Major prion protein (Homo sapiens) (UniProt P04156)" numeric_result=7.08
compound=CN(C)C(=O)CCc1ccc2c3c([nH]c2c1)[C@]1(C)[C@@H](C(=O)N2CCCCC2)C[C@H](CC(=O)NCCC2=CCCCC2)C(=O)N1CC3 target_or_test_system="Major prion protein (Homo sapiens) (UniProt P04156)" numeric_result=-3.09
compound=CC(C)Cn1c(N2CCN(C(=O)/C=C/c3ccccc3)CC2)nc2ccccc21 target_or_test_system="Major prion protein (Homo sapiens) (UniProt P04156)" numeric_result=-10.9
compound="Cc1ccc(C)c(S(=O)(=O)N2CCCOC2CNC(=O)C(=O)NC2CCCCC2)c1 (stereo not drawn)" target_or_test_system="Major prion protein (Homo sapiens) (UniProt P04156)" numeric_result=-1.91
compound=CC1(C)Cc2ccccc2-c2[nH]c(=S)[nH]c(=O)c21 target_or_test_system="Major prion protein (Homo sapiens) (UniProt P04156)" numeric_result=78.3
compound=CCCc1nc(SCC(=O)Nc2ccc(S(=O)(=O)N(C)C)cc2)c2ccccc2n1 target_or_test_system="Major prion protein (Homo sapiens) (UniProt P04156)" numeric_result=52.8
compound=CC(C)N(C(=O)CSc1nc(COc2ccccc2)nc2ccccc12)C(C)C target_or_test_system="Major prion protein (Homo sapiens) (UniProt P04156)" numeric_result=12.9
compound="CC(C)CC(N=C1NC(C)(C)Cc2ccccc21)C(=O)O (stereo not drawn)" target_or_test_system="Major prion protein (Homo sapiens) (UniProt P04156)" numeric_result=-0.6
compound="COc1ccc(C(=O)N2CCCCC2c2cc(C(=O)Nc3ccc(F)c(Cl)c3)no2)cc1 (stereo not drawn)" target_or_test_system="Major prion protein (Homo sapiens) (UniProt P04156)" numeric_result=-1.86
